test_target: UniProtKB Q72547
Examples of molecules with documented IC50 follow.
Answer format: numeric, µM implied, no suffix.

Check out these entries, answers already filled in.
structure_notation: CCN1c2cccnc2N(C)C(=O)c2cc(N)cnc21
unit_string: µM
number: 0.28

structure_notation: CN1C(=O)c2cccnc2N(C2CC2)c2cc(Cl)cnc21
unit_string: µM
number: 0.76

Now look at this entry.
Ask: Give the reported IC50 for CN1C(=O)c2cccnc2N(C2CC2)c2nc(Cl)ccc21 (system: UniProtKB Q72547).
Reply: 0.09

====

test_target: UniProt:Q72547
# thresholds on IC50 define classes: c1: < 200 nM; c2: ≥ 200 nM and < 1000 nM; c3: ≥ 1000 nM

structure_notation: CCN1c2ncccc2C(=O)N(C)c2ccc(-c3cccc(N)c3)nc21
category: c1

Ask: Bin? CCN1c2cc(C)c(C)nc2N(C)C(=O)c2cc(N)cnc21
Reply: c1

Ask: Could you place CCN1c2cc(C)c(C)nc2N(C)C(=O)c2cccnc21 in its proper category? Many thanks.
Reply: c1

Ask: Note: place this molecule into its band. Item: CCN1c2ncc(N)cc2C(=O)N(C)c2cccnc21
Reply: c1

Ask: Classify this molecule: CN1C(=O)c2cccnc2N(C2CC2)c2ncc(Cl)cc21
Reply: c2

Ask: Entry CCN1c2ccc(C)nc2N(C)C(=O)c2cccnc21 belongs to which category?
Reply: c3

Ask: Record CCN1c2cccnc2N(C)C(=O)c2cccnc21 — which class?
Reply: c3

Ask: Band of CCN1c2ncc(Br)cc2C(=O)N(C)c2cccnc21 ?
Reply: c3

Ask: The entry to classify is CCN1c2cc(Br)cnc2N(C)C(=O)c2cccnc21 ; which class holds it?
Reply: c2
